molecular target: UniProt Q9NZQ7; assay: PD-L1/PD-L1 dimerization biochemical protein-protein interaction assay (ALPHA); assay type: binding; settings: 0.5 nM His tagged PD-L1 and 0.5 nM FLAG tagged PD-L1, Table 4B, read-out: AC50 PDL1 Dimer 1 nM
Sequence (Q9NZQ7 19-238): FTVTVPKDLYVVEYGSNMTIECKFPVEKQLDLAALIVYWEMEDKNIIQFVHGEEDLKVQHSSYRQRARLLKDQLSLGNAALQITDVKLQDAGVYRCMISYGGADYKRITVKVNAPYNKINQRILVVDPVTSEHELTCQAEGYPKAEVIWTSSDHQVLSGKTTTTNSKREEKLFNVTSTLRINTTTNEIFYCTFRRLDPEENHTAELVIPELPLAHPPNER
Sequence (Q9NZQ7 19-238): as above
value-kind: AC50 (nM)

Known results for compounds:
compound	AC50, nM
COC[C@H](NCc1cc(C(F)(F)F)c(O[C@H]2CCc3c(-c4cccc(-c5ccc(CN[C@H]6C[C@](C)(O)C6)c(OC)n5)c4Cl)cccc32)nc1OC)C(=O)O [B-256]	13.1
CC[C@H](NCc1cc(C(F)(F)F)c(O[C@H]2CCc3c(-c4cccc(-c5ccc(CN[C@H]6C[C@](C)(O)C6)c(OC)n5)c4Cl)cccc32)nc1OC)C(=O)O [B-211]	9.21
COc1nc(-c2cccc(-c3cccc4c3CC[C@@H]4Oc3nc(OC)c(CN4CC[C@H](C(=O)NS(C)(=O)=O)C4)cc3Cl)c2Cl)ccc1CNC[C@@H]1CCC(=O)N1 [B-84]	37.3
CNC(=O)C1CCN(Cc2cc(Cl)c(O[C@H]3CCc4c(-c5cccc(-c6ccc(CNC[C@@H]7CCC(=O)N7)c(OC)n6)c5Cl)cccc43)nc2OC)C1 (stereo partly drawn) [B-88]	26.4

A. COc1nc(O[C@H]2CCc3c(-c4cccc(-c5cc(C)c(CN6CC(C)(O)C6)c(OC)n5)c4Cl)cccc32)c(Cl)cc1CN1CC[C@H](C(=O)O)C1 [B-60]
B. COc1cc(-c2cccc(-c3cccc4c3CC[C@@H]4Oc3nc(OC)c(CN4CC[C@@H](C(=O)O)C4)cc3Cl)c2Cl)ccc1CNC[C@@H]1CCC(=O)N1 [B-41]
Among A and B , which shows a numerically higher AC50 result? Mark your selection by writing its label.
A
